# Tested on: 616215-338-R-J1-PDC complex spheroid growth, % test/control
# Measurement notes: Anticancer human tumor 616215-338-R-J1-PDC patient-derived colon adenocarcinoma cell line growth inhibition [Asc]
# Condition label: curve of first compound; second compound 1 µM
log10(IC50) for assorted molecules
Each number you see is log10 of IC50, and the unit inside the log is nM.

# annotated cases, reported log10(IC50) shown
• C#Cc1c(F)ccc2cc(O)cc(-c3ncc4c(N5CC6CCC(C5)N6)nc(OCC56CCCN5CC(F)C6)nc4c3F)c12 (stereo unspecified) + CNC(C)C(=O)NC1CN(S(=O)(=O)c2cccc(S(=O)(=O)N3CCC4CCC(C(=O)NC(c5ccccc5)c5ccccc5)N4C(=O)C(NC(=O)C(C)NC)C3)c2)CCC2CCC(C(=O)NC(c3ccccc3)c3ccccc3)N2C1=O = 3.32
• COc1c(OCCCN2CCOCC2)ccc2c3n(c(=NC(=O)c4cnc(N)nc4)nc12)CCN3 + Cc1c(S(C)(=O)=O)c(-c2cc(F)cc(N3CCN(c4ccc(NS(=O)(=O)c5ccc(NC(CCN6CCC(C(=O)OCCCP(=O)(O)O)CC6)CSc6ccccc6)c(S(=O)(=O)C(F)(F)F)c5)cc4)CC3)c2)c(-c2ccc(Cl)cc2)n1C(C)C = 2.10
• CCN1C(C(=O)NC23CCC(C(=O)O)(CC2)CC3)C(c2cccc(Cl)c2F)C2(C(=O)Nc3cc(Cl)ccc32)C12CCCCC2 (stereo unspecified) + CNC(C)C(=O)NC1CN(S(=O)(=O)c2cccc(S(=O)(=O)N3CCC4CCC(C(=O)NC(c5ccccc5)c5ccccc5)N4C(=O)C(NC(=O)C(C)NC)C3)c2)CCC2CCC(C(=O)NC(c3ccccc3)c3ccccc3)N2C1=O = 1.95
• C=CC(=O)N1CCN(c2nc(=O)n(-c3c(C)ccnc3C(C)C)c3nc(-c4c(O)cccc4F)c(F)cc23)C(C)C1 (stereo unspecified) + CNC(C)C(=O)NC1CN(S(=O)(=O)c2cccc(S(=O)(=O)N3CCC4CCC(C(=O)NC(c5ccccc5)c5ccccc5)N4C(=O)C(NC(=O)C(C)NC)C3)c2)CCC2CCC(C(=O)NC(c3ccccc3)c3ccccc3)N2C1=O = 3.51
• C#Cc1c(F)ccc2cc(O)cc(-c3ncc4c(N5CC6CCC(C5)N6)nc(OCC56CCCN5CC(F)C6)nc4c3F)c12 (stereo unspecified) + Cc1c(S(C)(=O)=O)c(-c2cc(F)cc(N3CCN(c4ccc(NS(=O)(=O)c5ccc(NC(CCN6CCC(C(=O)OCCCP(=O)(O)O)CC6)CSc6ccccc6)c(S(=O)(=O)C(F)(F)F)c5)cc4)CC3)c2)c(-c2ccc(Cl)cc2)n1C(C)C = 3.81

Continue with the next molecule.
Please indicate log10(IC50) recorded for CCN1C(C(=O)NC23CCC(C(=O)O)(CC2)CC3)C(c2cccc(Cl)c2F)C2(C(=O)Nc3cc(Cl)ccc32)C12CCCCC2 (stereo unspecified) + Cc1c(S(C)(=O)=O)c(-c2cc(F)cc(N3CCN(c4ccc(NS(=O)(=O)c5ccc(NC(CCN6CCC(C(=O)OCCCP(=O)(O)O)CC6)CSc6ccccc6)c(S(=O)(=O)C(F)(F)F)c5)cc4)CC3)c2)c(-c2ccc(Cl)cc2)n1C(C)C
1.04

###

# Tested on: 616215-338-R-J1-PDC complex spheroid growth, % test/control
# Measurement notes: Anticancer human tumor 616215-338-R-J1-PDC cell line growth inhibition [Asc];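 also: spheroids exposed to agents for seven days before readout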;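 as to viability, T/C: 100% = DMSO vehicle control viability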
# Condition label: second compound 1 µM; first compound 0.01 µM; stronger effect = lower value
Readout label: viability, T/C

Input O=C(c1ccc(F)c(F)c1Nc1ccc(I)cc1F)N1CC(O)([C@@H]2CCCCN2)C1 + Cc1c(S(C)(=O)=O)c(-c2cc(F)cc(N3CCN(c4ccc(NS(=O)(=O)c5ccc(NC(CCN6CCC(C(=O)OCCCP(=O)(O)O)CC6)CSc6ccccc6)c(S(=O)(=O)C(F)(F)F)c5)cc4)CC3)c2)c(-c2ccc(Cl)cc2)n1C(C)C , output reported viability, T/C.
70.4%

Entry Cn1ncnc1[C@H]1c2n[nH]c(=O)c3cc(F)cc(c23)N[C@@H]1c1ccc(F)cc1 + Cc1c(S(C)(=O)=O)c(-c2cc(F)cc(N3CCN(c4ccc(NS(=O)(=O)c5ccc(NC(CCN6CCC(C(=O)OCCCP(=O)(O)O)CC6)CSc6ccccc6)c(S(=O)(=O)C(F)(F)F)c5)cc4)CC3)c2)c(-c2ccc(Cl)cc2)n1C(C)C needs its viability, T/C filled in; supply it.
54%

Provide one value: measured viability, T/C of O=C(c1ccc(F)c(F)c1Nc1ccc(I)cc1F)N1CC(O)([C@@H]2CCCCN2)C1 + CNC(C)C(=O)NC1CN(S(=O)(=O)c2cccc(S(=O)(=O)N3CCC4CCC(C(=O)NC(c5ccccc5)c5ccccc5)N4C(=O)C(NC(=O)C(C)NC)C3)c2)CCC2CCC(C(=O)NC(c3ccccc3)c3ccccc3)N2C1=O
106%

Determine from records and report viability, T/C for CNC(C)C(=O)NC1CN(S(=O)(=O)c2cccc(S(=O)(=O)N3CCC4CCC(C(=O)NC(c5ccccc5)c5ccccc5)N4C(=O)C(NC(=O)C(C)NC)C3)c2)CCC2CCC(C(=O)NC(c3ccccc3)c3ccccc3)N2C1=O (stereo unspecified) + Cc1c(S(C)(=O)=O)c(-c2cc(F)cc(N3CCN(c4ccc(NS(=O)(=O)c5ccc(NC(CCN6CCC(C(=O)OCCCP(=O)(O)O)CC6)CSc6ccccc6)c(S(=O)(=O)C(F)(F)F)c5)cc4)CC3)c2)c(-c2ccc(Cl)cc2)n1C(C)C
76%

Kindly indicate its recorded viability, T/C. Item: COc1c(OCCCN2CCOCC2)ccc2c3n(c(=NC(=O)c4cnc(N)nc4)nc12)CCN3 + CNC(C)C(=O)NC1CN(S(=O)(=O)c2cccc(S(=O)(=O)N3CCC4CCC(C(=O)NC(c5ccccc5)c5ccccc5)N4C(=O)C(NC(=O)C(C)NC)C3)c2)CCC2CCC(C(=O)NC(c3ccccc3)c3ccccc3)N2C1=O
89.4%

# return recorded viability, T/C for input CCN1CCN(Cc2ccc(Nc3ncc(F)c(-c4cc(F)c5nc(C)n(C(C)C)c5c4)n3)nc2)CC1 + CNC(C)C(=O)NC1CN(S(=O)(=O)c2cccc(S(=O)(=O)N3CCC4CCC(C(=O)NC(c5ccccc5)c5ccccc5)N4C(=O)C(NC(=O)C(C)NC)C3)c2)CCC2CCC(C(=O)NC(c3ccccc3)c3ccccc3)N2C1=O
111%

###

Measured viability, T/C of individual entries
# Test system: 616215-338-R-J1-PDC complex spheroid growth, % test/control
# Measurement notes: Anticancer human tumor 616215-338-R-J1-PDC cell line growth inhibition [Asc];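 also: spheroids exposed to agents for seven days before readout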;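 as to viability, T/C: 100% = DMSO vehicle control viability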
# Condition label: second compound 0.1 µM; first compound 0.0949 µM; stronger effect = lower value
Report as a plain number; the unit % is understood.

* NC(=O)C(=Cn1cnc(-c2cc(C(F)(F)F)cc(C(F)(F)F)c2)n1)c1cncnc1 + CNC(C)C(=O)NC1CN(S(=O)(=O)c2cccc(S(=O)(=O)N3CCC4CCC(C(=O)NC(c5ccccc5)c5ccccc5)N4C(=O)C(NC(=O)C(C)NC)C3)c2)CCC2CCC(C(=O)NC(c3ccccc3)c3ccccc3)N2C1=O | 70.5

Pending molecule:
Give the measured viability, T/C for Cc1nc(N2CCC3(CC2)COC(C)C3N)c(CO)nc1Sc1ccnc(N)c1Cl (configuration not stated) + CNC(C)C(=O)NC1CN(S(=O)(=O)c2cccc(S(=O)(=O)N3CCC4CCC(C(=O)NC(c5ccccc5)c5ccccc5)N4C(=O)C(NC(=O)C(C)NC)C3)c2)CCC2CCC(C(=O)NC(c3ccccc3)c3ccccc3)N2C1=O
94

###

Measured viability, T/C by item
# System: 616215-338-R-J1-PDC complex spheroid growth, % test/control
# Measurement notes: Anticancer human tumor 616215-338-R-J1-PDC cell line growth inhibition [Asc];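 also: spheroids exposed to agents for seven days before readout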;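 as to viability, T/C: 100% = DMSO vehicle control viability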
# Condition label: second compound 0.1 µM; first compound 10 µM; stronger effect = lower value
Write the number in % without appending the unit.

Look over these answered cases.
* O=C(c1cc(Cc2n[nH]c(=O)c3ccccc23)ccc1F)N1CCN(C(=O)C2CC2)CC1 + Cc1c(S(C)(=O)=O)c(-c2cc(F)cc(N3CCN(c4ccc(NS(=O)(=O)c5ccc(NC(CCN6CCC(C(=O)OCCCP(=O)(O)O)CC6)CSc6ccccc6)c(S(=O)(=O)C(F)(F)F)c5)cc4)CC3)c2)c(-c2ccc(Cl)cc2)n1C(C)C | 78.8
* O=C(c1cc(Cc2n[nH]c(=O)c3ccccc23)ccc1F)N1CCN(C(=O)C2CC2)CC1 + CNC(C)C(=O)NC1CN(S(=O)(=O)c2cccc(S(=O)(=O)N3CCC4CCC(C(=O)NC(c5ccccc5)c5ccccc5)N4C(=O)C(NC(=O)C(C)NC)C3)c2)CCC2CCC(C(=O)NC(c3ccccc3)c3ccccc3)N2C1=O | 78

Could you now look at the following molecule, please?
Report viability, T/C under test system 616215-338-R-J1-PDC complex spheroid growth, % test/control for C#Cc1c(F)ccc2cc(O)cc(-c3ncc4c(N5CC6CCC(C5)N6)nc(OCC56CCCN5CC(F)C6)nc4c3F)c12 (stereo not drawn) + CNC(C)C(=O)NC1CN(S(=O)(=O)c2cccc(S(=O)(=O)N3CCC4CCC(C(=O)NC(c5ccccc5)c5ccccc5)N4C(=O)C(NC(=O)C(C)NC)C3)c2)CCC2CCC(C(=O)NC(c3ccccc3)c3ccccc3)N2C1=O .
4.68

# credit: PubChem BioAssay AID1963448
